# ASSAYED_SYSTEM: human S1P1 (Homo sapiens (Human), UniProt P21453)
# Sequence (P21453 whole entry): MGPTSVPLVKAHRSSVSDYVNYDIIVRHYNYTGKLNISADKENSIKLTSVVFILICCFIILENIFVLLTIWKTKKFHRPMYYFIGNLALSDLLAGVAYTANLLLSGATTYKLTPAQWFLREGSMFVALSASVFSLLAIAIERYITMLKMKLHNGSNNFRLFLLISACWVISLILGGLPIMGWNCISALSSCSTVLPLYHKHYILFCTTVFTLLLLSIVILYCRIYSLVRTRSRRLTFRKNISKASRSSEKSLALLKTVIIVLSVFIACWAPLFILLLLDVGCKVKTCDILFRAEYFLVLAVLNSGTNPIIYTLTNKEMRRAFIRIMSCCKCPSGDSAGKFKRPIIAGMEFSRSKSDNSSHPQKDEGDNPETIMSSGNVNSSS
# EXPERIMENT_NOTES: S1P1 binding assay (33P-S1P radioligand competition, CHO cell membranes)
# SETTINGS: phosphate examples; read-out: S1P1 Binding
Exercise: for every item that follows, state its recorded IC50.

Observe how each entry below is paired with its result.
Cc1cccc(C)c1SC[C@@H]1CCc2cc([C@H]3CC[C@](N)(COP(=O)(O)O)C3)ccc2C1 = 0.01 to 0.1 µM
CC(C)CCOC[C@@H]1CCc2cc([C@H]3CC[C@](N)(COP(=O)(O)O)C3)ccc2C1 = < 0.01 µM
CCCCCCO[C@@H]1CCc2cc([C@@H]3CC[C@](N)(COP(=O)(O)O)C3)ccc2C1 = 0.01 to 0.1 µM
C/C=C\CCCC[C@H]1CCc2cc([C@H]3CC[C@](N)(COP(=O)(O)O)C3)ccc2C1 = < 0.01 µM
CCCCCC(=O)NC1CCc2cc([C@H]3CC[C@@](N)(COP(=O)(O)O)C3)ccc2C1 (stereo partly drawn) = 0.1 to 1 µM
CCCCCCC1CCc2cc([C@@H]3CC[C@](N)(COP(=O)(O)O)C3)ccc2O1 (stereo partly drawn) = 0.01 to 0.1 µM
CCCCCCCOC1CCc2cc([C@H]3CC[C@](N)(COP(=O)(O)O)C3)ccc2C1 (stereo partly drawn) = < 0.01 µM
C=CCCCC[C@@H]1CCc2cc([C@H]3CC[C@](N)(COP(=O)(O)O)C3)ccc2C1 = < 0.01 µM
CCCCCC1CCc2cc([C@H]3CC[C@](N)(COP(=O)(O)O)C3)ccc2C1 (stereo partly drawn) [compound 575] = 0.01 to 0.1 µM
CC(C)CCSC[C@@H]1CCc2cc([C@H]3CC[C@](N)(COP(=O)(O)O)C3)ccc2C1 = < 0.01 µM

For each listed entry, give its IC50.
1. CCCCCCC[C@H]1Cc2ccc([C@H]3CC[C@](N)(COP(=O)(O)O)C3)cc2CO1
2. COc1ccc(C[C@H]2CCc3cc([C@H]4CC[C@](N)(COP(=O)(O)O)C4)ccc3C2)cc1
3. N[C@]1(COP(=O)(O)O)CC[C@H](c2ccc3c(c2)CC[C@H](CS(=O)(=O)c2ccccc2)C3)C1
4. COc1cccc(OCC[C@@H]2CCc3cc([C@H]4CC[C@](N)(COP(=O)(O)O)C4)ccc3C2)c1

Out:
["< 0.01 µM", "0.01 to 0.1 µM", "0.1 to 1 µM", "0.01 to 0.1 µM"]

In: Please give the documented IC50 of CC(C)Oc1ccc(C[C@@H]2CCc3cc([C@H]4CC[C@](N)(COP(=O)(O)O)C4)ccc3C2)cc1
Out: 0.1 to 1 µM
